target: Transient receptor potential cation channel subfamily V member 1 (Homo sapiens, UniProt Q8NER1); assay: FLIPR (Fluorescence Imaging Plate Reader)-Based Ca2+ Assay; details: pH 7.2; 25 °C
Sequence (Q8NER1 whole entry): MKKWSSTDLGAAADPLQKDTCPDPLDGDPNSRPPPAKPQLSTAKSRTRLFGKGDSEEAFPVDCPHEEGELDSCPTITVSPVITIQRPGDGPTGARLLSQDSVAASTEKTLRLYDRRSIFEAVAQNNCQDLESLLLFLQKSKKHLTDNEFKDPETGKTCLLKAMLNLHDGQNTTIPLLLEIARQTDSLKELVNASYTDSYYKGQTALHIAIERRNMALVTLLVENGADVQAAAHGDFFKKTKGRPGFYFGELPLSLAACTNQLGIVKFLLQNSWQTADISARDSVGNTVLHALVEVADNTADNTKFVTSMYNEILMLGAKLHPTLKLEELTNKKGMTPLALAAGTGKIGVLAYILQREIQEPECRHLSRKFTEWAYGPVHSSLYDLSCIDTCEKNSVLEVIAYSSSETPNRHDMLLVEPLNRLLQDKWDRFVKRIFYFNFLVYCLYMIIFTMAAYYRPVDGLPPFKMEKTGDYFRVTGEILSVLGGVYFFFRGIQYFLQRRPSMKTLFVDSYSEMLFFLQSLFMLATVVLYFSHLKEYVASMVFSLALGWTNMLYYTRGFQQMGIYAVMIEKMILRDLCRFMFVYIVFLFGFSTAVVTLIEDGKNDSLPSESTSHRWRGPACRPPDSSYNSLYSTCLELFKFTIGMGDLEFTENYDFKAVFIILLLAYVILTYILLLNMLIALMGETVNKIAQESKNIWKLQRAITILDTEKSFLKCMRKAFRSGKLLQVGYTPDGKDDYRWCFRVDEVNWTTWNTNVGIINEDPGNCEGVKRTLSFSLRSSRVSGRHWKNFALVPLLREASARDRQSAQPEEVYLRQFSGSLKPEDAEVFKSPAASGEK
property-measured: EC50 (µM)
Report only the number, with the unit µM understood.

// solved cases for EC50 follow
O=C(Nc1ccccc1Br)N[C@@H]1CCN(c2ccc(F)c(F)c2)C1 | 0.008
O=C(Nc1ccccc1Br)N[C@@H]1CCN(c2cccc(F)c2)C1 | 0.016
Cc1cccc2c1CCN2CCNC(=O)Nc1ccccc1Br | 0.04
Cc1ccc2c(c1)CCCN2CCNC(=O)Nc1ccccc1Br | 0.04
Cc1ccc2c(c1)CCN2CCNC(=O)Nc1ccccc1Br | 0.05

Param item = O=C(Nc1ccccc1Br)N[C@@H]1CCN(c2cccc(C(F)(F)F)n2)C1 ; retrieve measured EC50.
0.063

What about O=C(Nc1ccccc1Br)N[C@@H]1CCN(c2ccc(Br)cn2)C1 ?
0.063

Entry O=C(Nc1ccccc1Br)N[C@@H]1CCN(c2ccc(C(F)(F)F)cn2)C1 please
0.032

Another molecule: O=C(Nc1ccccc1Br)N[C@@H]1CCN(c2ncccc2C(F)(F)F)C1
0.079
